Test system: Klebsiella pneumoniae
protocolSummary: Minimum inhibitory concentration against Klebsiella pneumoniae MGH-2 in vitro.
Assay type: functional
log10 MIC by entry:
Hi team, quick reminder: these entries are log10 of MIC (µg/mL).

Some solved cases for reference:
compound	measuredOn	log10 MIC
Cl.NC1CCN(c2c(F)cc3c(=O)c(C(=O)O)cn(C4CC4)c3c2[N+](=O)[O-])C1 (stereo not given)	Klebsiella pneumoniae	-0.40
CNCC1CCN(c2nc3c(cc2F)c(=O)c(C(=O)O)cn3C2CC2)C1 (stereo not given)	Klebsiella pneumoniae	-0.70
O=C(O)c1cn(C2CC2)c2c(Cl)c(N3CCNCC3)c(F)cc2c1=O	Klebsiella pneumoniae	-1.30
CCNCC1CCN(c2c(F)cc3c(=O)c(C(=O)O)cn(C4CC4)c3c2F)C1 (stereo not given) [PD-117558]	Klebsiella pneumoniae	-1.00

[in] Entry CN(C)CC1CCN(c2c(F)cc3c(=O)c(C(=O)O)cn(C4CC4)c3c2N)C1.Cl (stereo not given) : reported log10 MIC = ?
[out] -0.10

---

Test system: Escherichia coli
protocolSummary: Minimum inhibitory concentration against Escherichia coli vogel in vitro.
Type: functional
endpointName: MIC
Quick note: unit goes after the number.

Some solved cases for reference:
compound	observedResult
O=C(O)c1cn(C2CC2)c2nc(N3CCNCC3)c(F)cc2c1=O	0.05 mg/L
NCC1CCN(c2nc3c(cc2F)c(=O)c(C(=O)O)cn3C2CC2)C1 (stereo not given)	0.1 mg/L
CN(C)CC1CCN(c2c(F)cc3c(=O)c(C(=O)O)cn(C4CC4)c3c2N)C1.Cl (stereo not given)	0.4 mg/L
CC(C)NCC1CCN(c2c(F)cc3c(=O)c(C(=O)O)cn(C4CC4)c3c2F)C1 (stereo not given)	0.1 mg/L

Switching to the query record.
[in] Entry Cl.NC1CCN(c2c(F)cc3c(=O)c(C(=O)O)cn(C4CC4)c3c2Cl)C1 (stereo not given) [CLINAFLOXACIN HYDROCHLORIDE] : reported MIC = ?
[out] 0.013 mg/L

---

MIC by entry:
Tested on: Escherichia coli
protocolSummary: Minimum inhibitory concentration against Escherichia coli vogel in vitro.
Type: functional
Enter your answer as a number in µg/mL; do not include the unit.

compound	MIC / µg/mL
CC1COc2c(N3CCC(CN(C)C)C3)c(F)cc3c(=O)c(C(=O)O)cn1c23.Cl (stereo not given)	0.2

Switching to the query record.
[in] Entry CC1COc2c(N3CCC(CN)C3)c(F)cc3c(=O)c(C(=O)O)cn1c23 (stereo not given) : reported MIC = ?
[out] 0.2

---

MIC by entry:
System: Escherichia coli
protocolSummary: Minimum inhibitory concentration against Escherichia coli H560 in vitro.
Assay type: functional
Enter your answer as a number in µg/mL; do not include the unit.

Some solved cases for reference:
compound	measuredOn	endpointName	observedResult
CC(C)NCC1CCN(c2c(F)cc3c(=O)c(C(=O)O)cn4c3c2OCC4C)C1 (stereo not given)	Escherichia coli	MIC	0.4
Nc1c(N2CCNCC2)c(F)cc2c(=O)c(C(=O)O)cn(C3CC3)c12	Escherichia coli	MIC	0.2
CN(C)CC1CCN(c2c(F)cc3c(=O)c(C(=O)O)cn(C4CC4)c3c2Cl)C1 (stereo not given)	Escherichia coli	MIC	0.025
CC(C)NCC1CCN(c2cc3c(cc2F)c(=O)c(C(=O)O)cn3C2CC2)C1.Cl (stereo not given)	Escherichia coli	MIC	0.05

[in] Entry CC1COc2c(N3CCC(CN)C3)c(F)cc3c(=O)c(C(=O)O)cn1c23 (stereo not given) : reported MIC = ?
[out] 0.05

[in] Entry CN(C)CC1CCN(c2nc3c(cc2F)c(=O)c(C(=O)O)cn3C2CC2)C1 (stereo not given) : reported MIC = ?
[out] 0.05

[in] Entry CN(C)CC1CCN(c2c(F)cc3c(=O)c(C(=O)O)cn(C4CC4)c3c2N)C1.Cl (stereo not given) : reported MIC = ?
[out] 0.4

[in] Entry CNCC1CCN(c2c(F)cc3c(=O)c(C(=O)O)cn4c3c2OCC4C)C1 (stereo not given) : reported MIC = ?
[out] 0.2

[in] Entry CCNCC1CCN(c2c(F)cc3c(=O)c(C(=O)O)cn4c3c2OCC4C)C1 (stereo not given) : reported MIC = ?
[out] 0.05

[in] Entry CC1COc2c(N3CCC(CN(C)C)C3)c(F)cc3c(=O)c(C(=O)O)cn1c23.Cl (stereo not given) : reported MIC = ?
[out] 0.2
